FYI, the data here is from PubChem BioAssay.

Experiment: sensitizers of A549 cells to miR-34 induction, primary screen, imaging, A549 dox-inducible miR-34, nuclei and caspase counts (AID 1347080); note: test concentration not given here
Conditions: A549 miR-34 inducible, Hoechst nuclei count, 48 h; measured here: total cells with miR-34 induction; stronger effect = lower value
Endpoint: cell count

> print(dat)
                                   molecule    endpoint  recorded.value
1  CC[C@H]1CN2CCC1C[C@H]2[C@H](O)c1ccnc2ccc(OC)cc12 (stereo partly drawn)  cell count            8140
2  Clc1ccc(C(OCCN2CCCCC2)c2ccccc2)cc1 (stereo not drawn)  cell count            7820
3  C=C(C)CN1CC[C@]23c4c5ccc(O)c4O[C@H]2c2[nH]c4ccccc4c2C[C@@]3(O)C1C5  cell count            5020
